- Test system: cancer patients
- Test summary: Test Example 4: correlation between vaccination with individual peptides (or peptide sets) and OS, Cox proportional hazards regression
- Assay type: in vivo, human
- Conditions used: Table 18; all 2,588 cases; median OS of patients under PPV containing the peptide
Property label: Vaccinate cases (mOS)

Here is how some sequences turned out for Vaccinate cases (mOS).
INSERT INTO assay_data (biosequence, result) VALUES
  ('LLQAEAPRL (listed as Homo sapiens) [SART3-302]', '408(12.7) M'),
  ('ILEQSGEWWK (listed as Homo sapiens) [Lck-90]', '502(11.3) M'),
  ('ASLDSDPWV (listed as Homo sapiens) [WHSC2-103]', '729(11.5) M'),
  ('ILGELREKV (listed as Homo sapiens) [WHSC2-141]', '325(12.1) M'),
  ('KYVGIEREM (listed as Homo sapiens) [EZH2-735]', '69(13.3) M');

Query: Request the reported Vaccinate cases (mOS) associated with DYLRSVLEDF (listed as Homo sapiens) [Lck-488]
Result: 1,103(12.0) M

Query: Lookup GIHKQKEKSR (listed as Homo sapiens) [PAP-248]
Result: 147(11.4) M

Query: Note, next up: DYVREHKDNI (listed as Homo sapiens) [EGFR-800]
Result: 390(14.3) M

Query: Let us now turn to KLKHYGPGWV (listed as Homo sapiens) [CypB-129]
Result: 483(12.3) M

Query: Consider next the sequence NVLHFFNAPL (listed as Homo sapiens) [HNRPL-501] in the same way.
Result: 355(12.1) M

Query: Field entry: TYSVSFDSL (listed as Homo sapiens) [PSMA-624]
Result: 101(11.7) M

Query: What would you report for DYSARWNEI (listed as Homo sapiens) [SART2-93] ?
Result: 1,137(12.3) M

Query: Then KLVERLGAA (listed as Homo sapiens) [Lck-246] ?
Result: 366(11.4) M

Query: Input WLEYYNLER (listed as Homo sapiens) [SART3-511]
Result: 439(11.0) M

Query: Also need LYAWEPSFL (listed as Homo sapiens) [MRP3-503] , thanks.
Result: 133(14.1) M

Query: What about this sequence? RYLTQETNKV (listed as Homo sapiens) [PTHrP-102]
Result: 204(13.3) M

Query: // same read-out, input: ALVEFEDVL (listed as Homo sapiens) [HNRPL-140]
Result: 200(12.9) M

Query: # iterate: TFDYLRSVL (listed as Homo sapiens) [Lck-486]
Result: 879(12.3) M

Query: Thanks! And NYSVRYRPGL (listed as Homo sapiens) [MRP3-1293] ?
Result: 324(11.9) M

* * *

- System: anti-peptide IgG in plasma
- Test summary: Test Example 4: peptide-specific IgG titer pre and post vaccination, bead-based multiplexed Luminex assay
- Format: in vivo, human
- Conditions used: number of 2,588 patients below 10 FIU
// values below are reported Pre-vaccination IgG Negative patients
No unit in the answer, only the number.

Query: Using the record for DYSARWNEI (listed as Homo sapiens) [SART2-93] , report its Pre-vaccination IgG Negative patients.
Result: 340

Query: And then QIRPIFSNR (listed as Homo sapiens) [SART3-734] , what is it?
Result: 547

Query: Record: DYLRSVLEDF (listed as Homo sapiens) [Lck-488]
Result: 441
